Every entry's value here was drawn from patent US20170045513A1.

The substances listed here are annotated with their Percent of maximal response to individual gluten peptides, ELISp.
Test system: gluten-reactive T cells
protocol_summary: Overnight IFNγ ELISpot assay with fresh PBMC
Type: cell-based, human
condition_label: Subject 10; after oral gluten challenge; Max. 11 SFU
Non-standard residues stand in square brackets, D forms with d. pGlu = O=C1CC[C@@H](C(=O)O)N1

[ask] For the substance (pE)QPYPQPELPYPQPQ-amide ([pGlu]QPYPQPELPYPQPQ-NH2; SMILES CC(C)C[C@H](NC(=O)[C@H](CCC(=O)O)NC(=O)[C@@H]1CCCN1C(=O)[C@H](CCC(N)=O)NC(=O)[C@@H]1CCCN1C(=O)[C@H](Cc1ccc(O)cc1)NC(=O)[C@@H]1CCCN1C(=O)[C@H](CCC(N)=O)NC(=O)[C@@H]1CCC(=O)N1)C(=O)N1CCC[C@H]1C(=O)N[C@@H](Cc1ccc(O)cc1)C(=O)N1CCC[C@H]1C(=O)N[C@@H](CCC(N)=O)C(=O)N1CCC[C@H]1C(=O)N[C@@H](CCC(N)=O)C(N)=O) [Peptide 15] , what Percent of maximal response to individual gluten peptides, ELISp is on record?
[reply] 0 % of max

[ask] For the substance (pE)LQPFPQPELPYPQPQ-amide ([pGlu]LQPFPQPELPYPQPQ-NH2; SMILES CC(C)C[C@H](NC(=O)[C@@H]1CCC(=O)N1)C(=O)N[C@@H](CCC(N)=O)C(=O)N1CCC[C@H]1C(=O)N[C@@H](Cc1ccccc1)C(=O)N1CCC[C@H]1C(=O)N[C@@H](CCC(N)=O)C(=O)N1CCC[C@H]1C(=O)N[C@@H](CCC(=O)O)C(=O)N[C@@H](CC(C)C)C(=O)N1CCC[C@H]1C(=O)N[C@@H](Cc1ccc(O)cc1)C(=O)N1CCC[C@H]1C(=O)N[C@@H](CCC(N)=O)C(=O)N1CCC[C@H]1C(=O)N[C@@H](CCC(N)=O)C(N)=O) [Peptide 1] , what Percent of maximal response to individual gluten peptides, ELISp is on record?
[reply] 9 % of max
